# Species: Rattus norvegicus
# Test Description: Inhibition of GABA gated chloride channel in rat cortex at 10 uM by radioligand binding assay
Observation Type: inhibition (%)

| Structure As Smiles | Units Of Measure | Result Operator | Measured Number |
| --- | --- | --- | --- |
| Cc1nc(N2CCN(C)CC2)c2nc(-c3ccccc3Cl)n(C3CCOCC3)c2n1 | % | = | 85 |
| CCN1CCN(c2nc(C)nc3c2nc(-c2ccccc2Cl)n3CCOC)CC1 | % | = | 97 |
| Cc1nc(N2CCN(C)CC2)c2nc(-c3ccccc3Cl)n(CC(C)(C)O)c2n1 | % | = | 83 |
| Cc1nc(N2CCN(C)CC2)c2nc(-c3ccccc3Cl)n(C(C)(C)CO)c2n1 | % | = | 20 |
| Cc1nc(N2CCN(C)CC2)c2nc(-c3ccccc3Cl)n([C@H](C)CO)c2n1 | % | = | 20 |
| CCN1CCN(c2nc(C)nc3c2nc(-c2ccccc2Cl)n3C(COC)COC)CC1 | % | < | 10 |

###

# Test Description: Half life in Beagle dog at 1 mg/kg, po
# Format: ADME, organism-based, Canis lupus familiaris
# Parameters: dose 1 mg/kg, route oral
# Experimental Conditions: in vivo

| Structure As Smiles | half-life (h) |
| --- | --- |
| Cc1nc(N2CCN(C)CC2)c2nc(-c3ccccc3Cl)n([C@H](C)CO)c2n1 | 1.7 |

###

# Test Description: AUC in Sprague-Dawley rat at 1 mg/kg, iv and 1 mg/kg, po
# Assay type: ADME, organism-based
# Experimental Conditions: plasma

| Structure As Smiles | AUC (ng·h/mL) |
| --- | --- |
| Cc1nc(N2CCN(C)CC2)c2nc(-c3ccccc3Cl)n([C@H](C)CO)c2n1 | 514 |

###

# Tgt: UniProt:P08684
# Sequence (P08684 whole entry): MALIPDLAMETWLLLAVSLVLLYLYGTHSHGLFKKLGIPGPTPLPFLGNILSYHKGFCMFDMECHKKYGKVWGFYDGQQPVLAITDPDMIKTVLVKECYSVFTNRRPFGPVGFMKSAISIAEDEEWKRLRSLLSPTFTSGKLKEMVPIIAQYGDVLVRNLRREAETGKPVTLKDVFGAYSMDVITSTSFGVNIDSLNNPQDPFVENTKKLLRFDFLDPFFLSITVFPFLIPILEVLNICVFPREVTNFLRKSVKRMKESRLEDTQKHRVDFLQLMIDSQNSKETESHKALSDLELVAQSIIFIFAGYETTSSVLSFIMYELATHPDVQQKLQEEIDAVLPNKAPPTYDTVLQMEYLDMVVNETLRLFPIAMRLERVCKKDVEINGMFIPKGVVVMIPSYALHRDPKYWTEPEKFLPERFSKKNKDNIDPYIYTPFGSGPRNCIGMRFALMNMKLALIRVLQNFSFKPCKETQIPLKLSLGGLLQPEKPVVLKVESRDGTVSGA
# Test Description: Drug metabolism assessed as human CYP3A4-mediated oxidative compound turnover
# Type: ADME
# Experimental Conditions: recombinant enzyme, read-out: Drug metabolism
Observation Type: metabolised (%)

| Structure As Smiles | Tgt | Observation Type | Measured Number |
| --- | --- | --- | --- |
| Cc1nc(N2CCN(C)CC2)c2nc(-c3ccccc3Cl)n([C@H](C)CO)c2n1 | UniProt:P08684 | metabolised | 80 |

###

metabolised at 0.5 h, 2 µM for assorted compounds
# Test Description: Drug metabolism in dog liver microsomes at 2 uM after 0.5 hr by LC/MS/MS analysis
# Assay type: ADME, Canis lupus familiaris
# Experimental Conditions: read-out: Drug metabolism
Observation Type: metabolised at 0.5 h, 2 µM

| Structure As Smiles | Observation Type | Result |
| --- | --- | --- |
| Cc1nc(N2CCN(C)CC2)c2nc(-c3ccccc3Cl)n(CC(C)(C)O)c2n1 | metabolised at 0.5 h, 2 µM | 52% |
| Cc1nc(N2CCN(C)CC2)c2nc(-c3ccccc3Cl)n([C@@H](C)CO)c2n1 | metabolised at 0.5 h, 2 µM | 60% |
| COC(=O)NCCn1c(-c2ccccc2Cl)nc2c(N3CCN(C)CC3)nc(C)nc21 | metabolised at 0.5 h, 2 µM | 62% |
| Cc1nc(N2CCN(C)CC2)c2nc(-c3ccccc3Cl)n(C(C)(C)CO)c2n1 | metabolised at 0.5 h, 2 µM | 90% |
